experiment: Study BHV3500-107 Cohort 1: zavegepant 50 mg SoftGel QD PK (fasted Days 1-10, fed Days 11-14); format: in vivo, humans; settings: human, in vivo, oral, 50 mg, Study 107, Cohort 1, Day 1; 50 mg SoftGel single dose, fasted; read-out: Tmax, Mean
ENDPOINT: Tmax (h)
Response body: numeric value in h, unit text excluded.

**Query** Report measured Tmax; entry is Cc1cc(C[C@@H](NC(=O)N2CCC(c3cc4ccccc4[nH]c3=O)CC2)C(=O)N2CCN(C3CCN(C)CC3)CC2)cc2cn[nH]c12
**Result** 2.42

----------
assay: Study BHV3500-107 Cohort 1: zavegepant 50 mg SoftGel QD PK (fasted Days 1-10, fed Days 11-14); type: in vivo, humans; details: human, in vivo, po, 50 mg, Cohort 1, Day 14, 50 mg QD SoftGel oral, fed (moderate fat meal), multiple dose; Median; read-out: Cmax
ENDPOINT: Cmax (ng/mL)
Response body: numeric value in ng/mL, unit text excluded.

**Query** Report measured Cmax; entry is Cc1cc(C[C@@H](NC(=O)N2CCC(c3cc4ccccc4[nH]c3=O)CC2)C(=O)N2CCN(C3CCN(C)CC3)CC2)cc2cn[nH]c12
**Result** 1.48

----------
assay: in vivo; settings: female, beagle, dog, 50 mg, Tmax, Median/Average
ENDPOINT: Tmax (h)
Response body: numeric value in h, unit text excluded.

**Query** Report measured Tmax; entry is Cc1cc(C[C@@H](NC(=O)N2CCC(c3cc4ccccc4[nH]c3=O)CC2)C(=O)N2CCN(C3CCN(C)CC3)CC2)cc2cn[nH]c12
**Result** 1

----------
assay: in vivo; conditions: female, beagle, dog, 50 mg, t1/2, Median/Average
ENDPOINT: half-life (min)
Response body: numeric value in min, unit text excluded.

**Query** Report measured half-life; entry is Cc1cc(C[C@@H](NC(=O)N2CCC(c3cc4ccccc4[nH]c3=O)CC2)C(=O)N2CCN(C3CCN(C)CC3)CC2)cc2cn[nH]c12
**Result** 46.2

----------
experiment: Study BHV3500-103 Treatment B: PK after 50 mg x 1 SoftGel orally; type: in vivo, humans; conditions: human, in vivo, po, 50 mg, Study 103; 50 mg SoftGel x 1 oral; read-out: Tmax, Mean
ENDPOINT: Tmax (h)
Response body: numeric value in h, unit text excluded.

**Query** Report measured Tmax; entry is Cc1cc(C[C@@H](NC(=O)N2CCC(c3cc4ccccc4[nH]c3=O)CC2)C(=O)N2CCN(C3CCN(C)CC3)CC2)cc2cn[nH]c12 [BHV-3500]
**Result** 1.98

----------
assay: Study BHV3500-107 Cohort 1: zavegepant 50 mg SoftGel QD PK (fasted Days 1-10, fed Days 11-14); assay type: in vivo, humans; conditions: human, in vivo, oral, 50 mg, Study 107, Cohort 1, Day 1; 50 mg SoftGel single dose, fasted; read-out: Cmax, Mean
ENDPOINT: Cmax (ng/mL)
Response body: numeric value in ng/mL, unit text excluded.

**Query** Report measured Cmax; entry is Cc1cc(C[C@@H](NC(=O)N2CCC(c3cc4ccccc4[nH]c3=O)CC2)C(=O)N2CCN(C3CCN(C)CC3)CC2)cc2cn[nH]c12 [BHV-3500]
**Result** 6.32

----------
assay: Study BHV3500-107 Cohort 1: zavegepant 50 mg SoftGel QD PK (fasted Days 1-10, fed Days 11-14); format: in vivo, humans; conditions: human, in vivo, po, 50 mg, Cohort 1, Day 14, 50 mg QD SoftGel oral, fed (moderate fat meal), multiple dose; Mean; read-out: Tmax
ENDPOINT: Tmax
Note: a bare number is incomplete; add the unit.

**Query** Report measured Tmax; entry is Cc1cc(C[C@@H](NC(=O)N2CCC(c3cc4ccccc4[nH]c3=O)CC2)C(=O)N2CCN(C3CCN(C)CC3)CC2)cc2cn[nH]c12 [BHV-3500]
**Result** 3.78 h

----------
assay: Study BHV3500-107 Cohort 1: zavegepant 50 mg SoftGel QD PK (fasted Days 1-10, fed Days 11-14); assay type: in vivo, humans; settings: human, in vivo, oral, 50 mg, Study 107, Cohort 1, Day 1; 50 mg SoftGel single dose, fasted; read-out: AUCINF_obs, Median
ENDPOINT: AUC(0-inf)

**Query** Report measured AUC(0-inf); entry is Cc1cc(C[C@@H](NC(=O)N2CCC(c3cc4ccccc4[nH]c3=O)CC2)C(=O)N2CCN(C3CCN(C)CC3)CC2)cc2cn[nH]c12
**Result** 20.6 ng·h/mL

----------
test: in vivo; settings: female, beagle, dog, 50 mg, t1/2
ENDPOINT: half-life
Note: a bare number is incomplete; add the unit.

**Query** Report measured half-life; entry is Cc1cc(C[C@@H](NC(=O)N2CCC(c3cc4ccccc4[nH]c3=O)CC2)C(=O)N2CCN(C3CCN(C)CC3)CC2)cc2cn[nH]c12
**Result** 32.4 min

----------
experiment: Study BHV3500-107 Cohort 1: zavegepant 50 mg SoftGel QD PK (fasted Days 1-10, fed Days 11-14); format: in vivo, humans; conditions: human, in vivo, po, 50 mg, Cohort 1, Day 10, 50 mg QD SoftGel oral, fasted, multiple dose; Median; read-out: Cmax
ENDPOINT: Cmax (ng/mL)
Response body: numeric value in ng/mL, unit text excluded.

**Query** Report measured Cmax; entry is Cc1cc(C[C@@H](NC(=O)N2CCC(c3cc4ccccc4[nH]c3=O)CC2)C(=O)N2CCN(C3CCN(C)CC3)CC2)cc2cn[nH]c12
**Result** 4.7

----------
experiment: Study BHV3500-107 Cohort 1: zavegepant 50 mg SoftGel QD PK (fasted Days 1-10, fed Days 11-14); format: in vivo, humans; details: human, in vivo, oral, 50 mg, Study 107, Cohort 1, Day 1; 50 mg SoftGel single dose, fasted; read-out: Tmax, Median
ENDPOINT: Tmax (h)
Response body: numeric value in h, unit text excluded.

**Query** Report measured Tmax; entry is Cc1cc(C[C@@H](NC(=O)N2CCC(c3cc4ccccc4[nH]c3=O)CC2)C(=O)N2CCN(C3CCN(C)CC3)CC2)cc2cn[nH]c12
**Result** 2.25

----------
experiment: Study BHV3500-107 Cohort 1: zavegepant 50 mg SoftGel QD PK (fasted Days 1-10, fed Days 11-14); assay type: in vivo, humans; details: human, in vivo, oral, 50 mg, Study 107, Cohort 1, Day 1; 50 mg SoftGel single dose, fasted; read-out: Cmax, Geometric Mean
ENDPOINT: Cmax
Note: a bare number is incomplete; add the unit.

**Query** Report measured Cmax; entry is Cc1cc(C[C@@H](NC(=O)N2CCC(c3cc4ccccc4[nH]c3=O)CC2)C(=O)N2CCN(C3CCN(C)CC3)CC2)cc2cn[nH]c12
**Result** 5.3 ng/mL

----------
assay: Study BHV3500-103 Treatment B: PK after 50 mg x 1 SoftGel orally; assay type: in vivo, humans; settings: human, in vivo, po, 50 mg, Study 103; 50 mg SoftGel x 1 oral; read-out: AUCINF_obs, Median
ENDPOINT: AUC(0-inf) (µg·h/mL)
Response body: numeric value in µg·h/mL, unit text excluded.

**Query** Report measured AUC(0-inf); entry is Cc1cc(C[C@@H](NC(=O)N2CCC(c3cc4ccccc4[nH]c3=O)CC2)C(=O)N2CCN(C3CCN(C)CC3)CC2)cc2cn[nH]c12
**Result** 0.0191

----------
test: Study BHV3500-107 Cohort 1: zavegepant 50 mg SoftGel QD PK (fasted Days 1-10, fed Days 11-14); type: in vivo, humans; settings: human, in vivo, po, 50 mg, Cohort 1, Day 1, 50 mg SoftGel oral, fasted, single dose; Median; read-out: Cmax
ENDPOINT: Cmax (ng/mL)
Response body: numeric value in ng/mL, unit text excluded.

**Query** Report measured Cmax; entry is Cc1cc(C[C@@H](NC(=O)N2CCC(c3cc4ccccc4[nH]c3=O)CC2)C(=O)N2CCN(C3CCN(C)CC3)CC2)cc2cn[nH]c12
**Result** 6.78

----------
assay: Study BHV3500-103 Treatment B: PK after 50 mg x 1 SoftGel orally; assay type: in vivo, humans; conditions: human, in vivo, po, 50 mg, Study 103; 50 mg SoftGel x 1 oral; read-out: AUC0-24, Geometric Mean
ENDPOINT: AUC(0-t) (ng·h/mL)
Response body: numeric value in ng·h/mL, unit text excluded.

**Query** Report measured AUC(0-t); entry is Cc1cc(C[C@@H](NC(=O)N2CCC(c3cc4ccccc4[nH]c3=O)CC2)C(=O)N2CCN(C3CCN(C)CC3)CC2)cc2cn[nH]c12 [BHV-3500]
**Result** 21

----------
experiment: Study BHV3500-107 Cohort 1: zavegepant 50 mg SoftGel QD PK (fasted Days 1-10, fed Days 11-14); assay type: in vivo, humans; details: human, in vivo, po, 50 mg, Cohort 1, Day 1, 50 mg SoftGel oral, fasted, single dose; Geometric Mean; read-out: Tmax
ENDPOINT: Tmax
Note: a bare number is incomplete; add the unit.

**Query** Report measured Tmax; entry is Cc1cc(C[C@@H](NC(=O)N2CCC(c3cc4ccccc4[nH]c3=O)CC2)C(=O)N2CCN(C3CCN(C)CC3)CC2)cc2cn[nH]c12
**Result** 2.18 h
